ASSAY DETAILS: qHTS assay for small molecule agonists of the antioxidant response element (ARE) signaling pathway - cell viability counter screen (AID 743203); note: nearly all actives have a fitted effect of over 55% in size
MEASUREMENT CONTEXT: ARE-bla HepG2 viability, CellTiter-Glo luminescence, 16 h; series mostly up to 73.3 µM
Inconclusive results are not listed. Calls of active or inactive are those of the source. Calls come from the whole dose curve.
Could you please pick one outcome from this set? TRUE for active, FALSE for inactive

Any idea what this test logged for CN1CCCC(n2nc(Cc3ccc(Cl)cc3)c3ccccc3c2=O)CC1 (configuration not stated) ?
TRUE

Any idea what this test logged for CCCCN(CCCC)C(C(N)=O)c1ccc(OC)cc1 (configuration not stated) ?
FALSE

Any idea what this test logged for Nc1ncnc2c1ncn2[C@H]1CC[C@@H](CO)O1 ?
FALSE

Any idea what this test logged for CN(C)CCC=C1c2ccccc2C=Cc2ccccc21 ?
FALSE

Any idea what this test logged for CNC(=O)c1cnn(-c2nc(N)c3ncn([C@@H]4O[C@H](CO)[C@@H](O)[C@H]4O)c3n2)c1 ?
FALSE

Any idea what this test logged for CC(CCC(=O)O)C(=O)O (configuration not stated) ?
FALSE

Any idea what this test logged for Nc1nc2ccc([N+](=O)[O-])cc2s1 ?
FALSE

Any idea what this test logged for CCCCCCCC/C=C\CCCCCCCCCCCC(=O)O ?
FALSE

Any idea what this test logged for Cc1cc2c(OCC(CNC(C)(C)C)OC(=O)c3ccccc3)cccc2[nH]1 (configuration not stated) ?
FALSE

Any idea what this test logged for COc1ccc(OC(=O)N(CC(=O)O)Cc2ccc(OCCc3nc(-c4ccccc4)oc3C)cc2)cc1 ?
FALSE

Any idea what this test logged for Cc1ccccc1N=C(N)Nc1ccccc1C ?
FALSE

Any idea what this test logged for CC(=O)c1cc2ccccc2s1 ?
FALSE

----------
ASSAY DETAILS: qHTS assay to identify small molecule agonists of H2AX - cell viability counter screen (AID 1224847); note: nearly all actives have a fitted effect of over 30% in size
MEASUREMENT CONTEXT: CHO-K1 viability, CellTiter-Glo luminescence, 3 h; series mostly up to 154 µM
Records with an inconclusive call do not appear. Active and inactive are the calls of the source. Calls come from the whole dose curve.
Could you please pick one outcome from this set? active, inactive

Any idea what this test logged for C/C=C\C/C=C/CCCCCCCCOC(C)=O ?
inactive

Any idea what this test logged for CC(=O)Nc1ccc(C)cc1C ?
inactive

Any idea what this test logged for CCC(C)COC(=O)CC(C)C (stereo not given) ?
inactive

Any idea what this test logged for c1ccc(C[n+]2cccc3ccccc32)cc1 ?
inactive

Any idea what this test logged for Cc1ccc(Cl)c(Nc2ccccc2C(=O)O)c1Cl ?
inactive

Any idea what this test logged for N#CCCN(CCO)CCO ?
inactive

Any idea what this test logged for FC(F)(F)c1ccccc1Cl ?
inactive

Any idea what this test logged for O=c1[nH]c2ccc(Cl)cc2o1 ?
inactive

Any idea what this test logged for CCCCC(CC)COP(=O)(O)O (stereo not given) ?
inactive

Any idea what this test logged for CC(=O)OCC[N+](C)(C)C ?
inactive

Any idea what this test logged for CC(C)C=O ?
inactive

Any idea what this test logged for OC[C@H]1O[C@@H](n2cnc3c(=S)nc[nH]c32)[C@H](O)[C@@H]1O ?
active

Any idea what this test logged for C=C(C)CCCC(C)CCO (stereo not given) ?
inactive

Any idea what this test logged for CC(=O)OCC(=O)NCCCOc1cccc(CN2CCCCC2)c1 ?
inactive

Any idea what this test logged for CCN(CC)CCNC(=O)COc1ccc(OC)cc1 ?
inactive

----------
ASSAY DETAILS: qHTS assay to test for compound auto fluorescence at 590 nm (red) in HepG2 cells (AID 720674); note: % is set by controls: 0 for no effect and ±100 for the full control effect
MEASUREMENT CONTEXT: HepG2 autofluorescence, red 540/590 nm, 1 h; series mostly up to 91.3 µM
Calls of active or inactive are those of the source. Calls come from the whole dose curve; as a rule, active = well fitted curve in the direction sought with a large enough effect in the repeat runs; inconclusive = weak or mixed curves; inactive = flat fitted curve, though single readings scatter.
RESULT TYPE: fluorescence, relative to Rose Bengal

Cc1cscn1 ... inactive
CCCCCCCCC(CCCCCC)C(=O)O (configuration not stated) ... inactive
CCOC(=O)c1ccc(C#Cc2ccc3c(c2)C(C)(C)CCS3)nc1 ... inactive
O=C(OCC(O)CO)c1ccccc1Nc1ccnc2cc(Cl)ccc12 (configuration not stated) ... 0.0018% [at 18.6 µM] (inactive)
COc1cc(N)c(Cl)cc1C(=O)NC1CCN(CCCOc2ccc(F)cc2)CC1OC (configuration not stated) ... 0.956% [at 18.6 µM] (inactive)

Annotate the compound C/C=C/C=C/C=O with its measured fluorescence, relative to Rose Bengal.
inactive

Annotate the compound CC1=C(CC=O)C(C)(C)CCC1 with its measured fluorescence, relative to Rose Bengal.
inactive

----------
ASSAY DETAILS: qHTS assay to identify small molecule antagonists of the peroxisome proliferator-activated receptor delta (PPARd) signaling pathway - cell viability counter screen (AID 743213); note: nearly all actives have a fitted effect of over 50% in size
MEASUREMENT CONTEXT: PPARd-bla HEK293H viability, CellTiter-Glo luminescence, 17 h; series mostly up to 62 µM
Results filed as inconclusive are left out. Active and inactive are the calls of the source. The call rests on the fitted dose curve; in most records, active means well fitted cell-killing curve with a large enough effect in the repeat runs; inconclusive means weak or mixed curves; inactive means no such curve, though single readings can be large or run the other way.
Could you please pick one outcome from this set? active, inactive

Any idea what this test logged for CC(=O)c1cc2ccccc2s1 ?
inactive

Any idea what this test logged for COC(=O)CS ?
inactive

Any idea what this test logged for C(=C\c1ccccc1)/c1ccccc1 ?
inactive

Any idea what this test logged for O=C1Cc2cc(Cl)ccc2N1 ?
inactive

Any idea what this test logged for CCCCCCCCC(CCCCCC)C(=O)O (centres undefined) ?
inactive

Any idea what this test logged for CCOc1ccc(Cc2nccc3cc(OCC)c(OCC)cc23)cc1OCC ?
inactive

Any idea what this test logged for C=C1c2cccc(O)c2C(O)=C2C(=O)[C@]3(O)C(O)=C(C(N)=O)C(=O)[C@@H](N(C)C)[C@@H]3[C@@H](O)[C@H]12 ?
inactive

Any idea what this test logged for CCCCCCCC/C=C\CCCCCCCCCCCC(=O)O ?
inactive

Any idea what this test logged for C1COC1 ?
inactive

Any idea what this test logged for CC(=O)OCC[N+](C)(C)C ?
inactive

Any idea what this test logged for CN(C)CCN1C(=O)c2ccccc2N(C)c2ccccc21 ?
inactive

Any idea what this test logged for O=c1cc(-c2ccccc2)oc2ccc3ccccc3c12 ?
active

Any idea what this test logged for CC(=O)Oc1ccc([N+](=O)[O-])cc1CCl ?
inactive

Any idea what this test logged for CCC(C)COC(C)=O (centres undefined) ?
inactive

----------
ASSAY DETAILS: qHTS assay to identify small molecule antagonists of the constitutive androstane receptor (CAR) signaling pathway - cell viability counter screen (AID 1224837); note: nearly all actives have a fitted effect of over 45% in size
MEASUREMENT CONTEXT: HepG2-CYP2B6-hCAR viability, CellTiter-Fluor, 23 h, co-treated with 50 nM CITCO; series mostly up to 92.4 µM
Results filed as inconclusive are left out. Active and inactive are the calls of the source. Calls come from the whole dose curve; as a rule, active = well fitted cell-killing curve with a large enough effect in the repeat runs; inconclusive = weak or mixed curves, or effect the other way; inactive = flat fitted curve, though single readings scatter.
Could you please pick one outcome from this set? T for active, F for inactive

Any idea what this test logged for CCOC(=O)[C@H](CCc1ccccc1)N[C@@H](C)C(=O)N(CC(=O)O)C1Cc2ccccc2C1 ?
F

Any idea what this test logged for Cc1ccccc1N=C(N)Nc1ccccc1C ?
F

Any idea what this test logged for Oc1c(I)cc(I)c2cccnc12 ?
F

Any idea what this test logged for CC[N+](CC)(CCNC(=O)C(=O)NCC[N+](CC)(CC)Cc1ccccc1Cl)Cc1ccccc1Cl ?
F

Any idea what this test logged for C=C1c2cccc(O)c2C(O)=C2C(=O)[C@]3(O)C(O)=C(C(N)=O)C(=O)[C@@H](N(C)C)[C@@H]3[C@@H](O)[C@H]12 ?
F

Any idea what this test logged for CCC(C)COC(=O)CC(C)C (stereo unspecified) ?
F

Any idea what this test logged for CC(=O)Oc1ccc([N+](=O)[O-])cc1CCl ?
T

Any idea what this test logged for C=CC(C)(CCC=C(C)C)OC(=O)CC(C)C (stereo unspecified) ?
F

Any idea what this test logged for CC(=O)Nc1cc(S(=O)(=O)O)cc2cc(S(=O)(=O)O)c(N=Nc3ccccc3)c(O)c12 ?
T

Any idea what this test logged for C[C@H]1C[C@H](O)c2ccsc2S1(=O)=O ?
F

Any idea what this test logged for N#[N+]c1ccc2c(S(=O)(=O)[O-])cccc2c1O ?
F

----------
STUDY TARGET: Nuclear receptor subfamily 1 group I member 2 (Homo sapiens) (UniProt O75469)
Sequence (O75469 whole entry, looked up): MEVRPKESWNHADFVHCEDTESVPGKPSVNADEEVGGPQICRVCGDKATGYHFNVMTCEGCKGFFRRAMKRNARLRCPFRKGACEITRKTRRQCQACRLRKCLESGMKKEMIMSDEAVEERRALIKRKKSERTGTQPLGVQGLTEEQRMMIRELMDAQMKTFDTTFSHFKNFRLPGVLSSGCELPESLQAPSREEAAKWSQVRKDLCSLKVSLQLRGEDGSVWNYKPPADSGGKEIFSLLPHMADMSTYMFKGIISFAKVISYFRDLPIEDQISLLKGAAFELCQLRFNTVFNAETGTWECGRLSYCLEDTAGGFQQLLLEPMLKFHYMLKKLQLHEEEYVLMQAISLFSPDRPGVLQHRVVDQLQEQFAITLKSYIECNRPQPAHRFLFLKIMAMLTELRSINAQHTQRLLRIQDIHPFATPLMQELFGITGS
ASSAY DETAILS: Human pregnane X receptor (PXR) small molecule agonists, qHTS assay (AID 1346982); note: nearly all actives have a fitted effect of over 35% in size; for activation: % is set by controls: 0 for no effect and ±100 for the full control effect
MEASUREMENT CONTEXT: PXR-Luc HepG2, CYP3A4 luciferase reporter, 24 h; series mostly up to 92.4 µM
Results filed as inconclusive are left out. Calls of active or inactive are those of the source. Calls follow the shape of the dose curve; as a rule, active = well fitted activation curve with a large enough effect in the repeat runs; inconclusive = weak or mixed curves; inactive = no such curve, though single readings can be large or run the other way.
Could you please pick one outcome from this set? active, inactive

Any idea what this test logged for CC(=O)c1cc2ccccc2s1 ?
inactive

Any idea what this test logged for NC1[C@H]2CN(c3nc4c(cc3F)c(=O)c(C(=O)O)cn4-c3ccc(F)cc3F)C[C@@H]12 (some centres undefined) ?
active

Any idea what this test logged for c1cc(N(CC2CO2)CC2CO2)ccc1Cc1ccc(N(CC2CO2)CC2CO2)cc1 (centres undefined) ?
active

Any idea what this test logged for O=C1CCCCCCCCCCOCCCCO1 ?
inactive

Any idea what this test logged for COc1cc(C(=O)NC2CCN(C)CC2)ccc1Nc1ncc2c(n1)N(C1CCCC1)CC(F)(F)C(=O)N2C ?
active

Any idea what this test logged for CC(C)C[C@H](NC(=O)[C@H](CCc1ccccc1)NC(=O)CN1CCOCC1)C(=O)N[C@@H](Cc1ccccc1)C(=O)N[C@@H](CC(C)C)C(=O)[C@@]1(C)CO1 ?
active

Any idea what this test logged for COC(=O)[C@H]1[C@H]2C[C@@H]3c4[nH]c5cc(OC)ccc5c4CCN3C[C@H]2C[C@@H](OC(=O)/C=C/c2ccc(O)c(OC)c2)[C@@H]1OC ?
active

Any idea what this test logged for O=C1c2ccccc2C(=O)C1c1nc2ccccc2c(Br)c1O ?
active

Any idea what this test logged for Nc1nnc(-c2ccc([N+](=O)[O-])o2)o1 ?
inactive
